# Tested system: 5α-reductase in rat placenta (Rattus norvegicus, UniProt P24008)
# Sequence (P24008 1-259): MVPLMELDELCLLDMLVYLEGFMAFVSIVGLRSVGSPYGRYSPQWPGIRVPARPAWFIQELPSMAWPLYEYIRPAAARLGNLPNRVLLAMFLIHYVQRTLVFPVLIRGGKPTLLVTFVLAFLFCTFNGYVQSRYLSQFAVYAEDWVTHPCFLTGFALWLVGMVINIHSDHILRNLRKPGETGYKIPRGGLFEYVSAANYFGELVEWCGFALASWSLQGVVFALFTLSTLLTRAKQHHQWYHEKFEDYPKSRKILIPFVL
Property label: pIC50
Give bare numbers, as −log10 of the molar value.

Recorded pIC50 for CC(C)(C)NC(=O)[C@H]1CC[C@H]2[C@@H]3CC[C@H]4NC(=O)C=C[C@]4(C)[C@H]3CC[C@]12C [finasteride] on 5α-reductase in rat placenta (Rattus norvegicus, UniProt P24008) was 7.96

// data source = patent US5872126A
